Target: T1, human CC chemokine receptor 4 (CCR4) (human, UniProt P51679 1-360)
T1 sequence (looked up): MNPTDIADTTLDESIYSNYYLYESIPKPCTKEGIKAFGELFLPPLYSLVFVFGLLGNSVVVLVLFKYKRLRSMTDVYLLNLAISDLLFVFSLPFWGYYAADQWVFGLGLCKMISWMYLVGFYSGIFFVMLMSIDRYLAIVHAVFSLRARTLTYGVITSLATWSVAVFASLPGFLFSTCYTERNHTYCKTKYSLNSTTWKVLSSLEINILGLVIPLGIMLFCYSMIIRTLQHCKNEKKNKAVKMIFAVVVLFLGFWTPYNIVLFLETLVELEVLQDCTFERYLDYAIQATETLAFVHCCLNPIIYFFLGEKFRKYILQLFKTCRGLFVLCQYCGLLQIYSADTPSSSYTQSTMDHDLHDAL
Test: cell-based or functional assay
I'd appreciate it if you could supply ADCC on CCRF-CEM cells, Max. Killing (%; nM IgG) values for the items below.

Input: Which value of ADCC on CCRF-CEM cells, Max. Killing (%; nM IgG) has been reported for IgG form of antibody 306 (defucosylated IgG1) (antibody, V domains shown, Human IgG1, lambda light chain; produced in presence of Kifunensine (defucosylated); Biotinylated via cysteines for the human serum experiment) VH: QVQLVQSGAEVKKPGSSVKVSCKASGGTFSSYAMSWVRQAPGQGLEWMGGIIPIFGTVNYAQKFQGRVTMTRDTSTSTVYMELSSLRPDDTAVYYCARRGGSYFDYWGQGTLVTVSS VL: SYVLTQPPSASGTPGQSVTISCSGSTSNIGSHYVSWYQQLPGTAPRLLIYRNHQRPSGVPDRLSGSKSGTSASLAISGLRSEDEADYYCAVWDAKYRGWVFGGGTKLTVLG in the records?
Output: 118 % (at 1.4 nM IgG)

Input: Consider next the binder IgG form of antibody 503 (defucosylated IgG1) (antibody, V domains shown, Human IgG1, lambda light chain; produced in presence of Kifunensine (defucosylated); Biotinylated via cysteines for the human serum experiment) VH: QVQLVQSGAEVKKPGSSVKVSCKASEGTFSSYAMSWVRQAPGQGLEWMGGIIPIFGTVNYAQKFQGRVTMTRDTSTSTVYMELSSLRSDDTAVYYCARRRGAKFDYWGQGTLVTVSS VL: SYVLTQPPSASGTPGQSVTISCSGSTSNIGSHYVVWYQQLPGTAPRLLIYRNHQRPSGVPDRLSGSKSGTSASLAIGGLRSEDEADYYCAVWDDTLSGWVFGGGTKLTVLG in the same way.
Output: 108 % (at 1.4 nM IgG)

Input: Consider next the binder IgG form of antibody 406 (defucosylated IgG1) (antibody, V domains shown, Human IgG1, lambda light chain; produced in presence of Kifunensine (defucosylated); Biotinylated via cysteines for the human serum experiment) VH: QVQLVQSGAEVKKPGSSVKVSCKASEGTFSSYAMSWVRQAPGQGLEWMGGIIPIFGTVNYAQKFQGRVTMTRDTSTSTVYMELSSLRSDDTAVYYCARRGGSYFDYWGQGTLVTVSS VL: SYVLTQPPSASGTPGQSVTISCSGSTSNIGSHYVSWYQQLPGTAPRLLIYRNHQRPSGVPDRLSGSKSGTSASLAISGLRSEDEADYYCAVWDAKYRGWVFGGGTKLTVLG in the same way.
Output: 121 % (at 1.4 nM IgG)

// data source = patent US20120164161A1
